Target: recombinant PfCLK3 kinase domain (Plasmodium falciparum, UniProt Q8IIL5)
Run description: ADP-Glo kinase assay, PfCLK3
Assay type: biochemical
Experimental context: 10 µM ATP; read-out: IC50 PfCLK3
Property name: pIC50
One number for each entry, as −log10 of the molar value.

O=C(Nc1c[nH]nc1-c1nc2ccc(CN3CCOCC3)cc2[nH]1)NC1CC1
7.00

Turning now to a further record.
Input line: Request: pIC50, test system recombinant PfCLK3 kinase domain (Plasmodium falciparum, UniProt Q8IIL5), entry CCN1CCN(C(=O)Cc2ccc(Nc3ncc(F)c(Nc4ccc(C(=O)Nc5ccccc5Cl)cc4)n3)cc2)CC1
Output line: 5.62

----------
Run description: Cytotoxicity counter-screening (MTT), CHO
Experimental context: Chinese hamster
Property name: CC50 at 48 h (µM)
Answers are plain numbers, in µM.

COc1cc(N2CCC(N3CCN(C)CC3)CC2)ccc1Nc1ncc(Cl)c(Nc2ccccc2S(=O)(=O)C(C)C)n1
2
CCN1CCN(C(=O)Cc2ccc(Nc3ncc(F)c(Nc4ccc(C(=O)Nc5ccccc5Cl)cc4)n3)cc2)CC1
3.6

Read the next record carefully.
Input line: What does the record list as CC50 at 48 h for O=C(Nc1c[nH]nc1-c1nc2ccc(CN3CCOCC3)cc2[nH]1)NC1CC1 ?
Output line: 4.5

----------
Run description: Human liver microsome clearance
Format: in vitro ADME
Experimental context: human liver microsomes; read-out: HL microsome CLint
Property name: microsomal CLint (µL/min/mg)
One number for each entry, in µL/min/mg.

COc1cc(N2CCC(N3CCN(C)CC3)CC2)ccc1Nc1ncc(Cl)c(Nc2ccccc2S(=O)(=O)C(C)C)n1
25.4

Now for a further molecule.
Input line: # lookup: microsomal CLint of O=C(Nc1c[nH]nc1-c1nc2ccc(CN3CCOCC3)cc2[nH]1)NC1CC1
Output line: 3.5

----------
Test system: synthetic β-hematin (βH) formation
Run description: NP-40 mediated cell-free β-hematin inhibition assay
Format: biochemical
Experimental context: cell-free NP-40, pH 4.8, 5 h
Please go through the items and note down their IC50.

Recorded results for 4 compounds are shown here.
COc1cc2c(Nc3ccc(NC(=O)c4ccccc4)cc3)ncnc2cc1OCCCN1CCOCC1 [ZM-39, ZM-447439]
< 20 µM
O=C(Nc1cccc(Nc2nccc(Nc3cccc(C(F)(F)F)c3)n2)c1)C1CC1 [Aki III, Aurora kinase inhibitor III]
< 20 µM
CCN1CCN(C(=O)Cc2ccc(Nc3ncc(F)c(Nc4ccc(C(=O)Nc5ccccc5Cl)cc4)n3)cc2)CC1 [AAi I, Aurora A Inhibitor I]
< 20 µM
CCN(CCO)CCCOc1ccc2c(Nc3cc(CC(=O)Nc4cccc(F)c4)n[nH]3)ncnc2c1 [AZD-1152, AZD-1152-HQPA]
< 20 µM

From here, focus on the item given below.
Input line: Give the reported IC50 for COc1cc(N2CCC(N3CCN(C)CC3)CC2)ccc1Nc1ncc(Cl)c(Nc2ccccc2S(=O)(=O)C(C)C)n1 [TAE684, NVP-TAE684] (system: synthetic β-hematin (βH) formation).
Output line: 41.4 µM

----------
Target: recombinant PfCLK3 kinase domain (Plasmodium falciparum, UniProt Q8IIL5)
Sequence (Q8IIL5 317-694): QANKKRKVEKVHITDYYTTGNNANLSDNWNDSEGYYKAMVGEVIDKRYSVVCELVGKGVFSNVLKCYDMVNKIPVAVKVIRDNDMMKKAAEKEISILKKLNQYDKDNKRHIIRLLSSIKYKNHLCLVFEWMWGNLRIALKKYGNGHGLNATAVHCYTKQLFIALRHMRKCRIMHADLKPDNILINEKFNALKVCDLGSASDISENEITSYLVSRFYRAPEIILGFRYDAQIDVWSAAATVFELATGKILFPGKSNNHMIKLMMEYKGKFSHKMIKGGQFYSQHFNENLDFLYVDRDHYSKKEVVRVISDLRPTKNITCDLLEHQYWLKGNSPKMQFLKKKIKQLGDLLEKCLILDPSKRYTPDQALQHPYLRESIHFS
Run description: ADP-Glo kinase assay, PfCLK3
Type: biochemical
pIC50: −log10 of the molar value.
Property name: pIC50

Input line: Short answer please: pIC50, recombinant PfCLK3 kinase domain (Plasmodium falciparum, UniProt Q8IIL5), entry O=C(Nc1cccc(Nc2nccc(Nc3cccc(C(F)(F)F)c3)n2)c1)C1CC1
Output line: < 5.00

----------
Target: recombinant PfPKG (Plasmodium falciparum, UniProt Q8I719)
Construct: Full-length PfPKG (PF3D7_1436600); His tag (N); made in house; host or cells: E. coli (first-named host, read as 'respectively')
Sequence (Q8I719 whole entry): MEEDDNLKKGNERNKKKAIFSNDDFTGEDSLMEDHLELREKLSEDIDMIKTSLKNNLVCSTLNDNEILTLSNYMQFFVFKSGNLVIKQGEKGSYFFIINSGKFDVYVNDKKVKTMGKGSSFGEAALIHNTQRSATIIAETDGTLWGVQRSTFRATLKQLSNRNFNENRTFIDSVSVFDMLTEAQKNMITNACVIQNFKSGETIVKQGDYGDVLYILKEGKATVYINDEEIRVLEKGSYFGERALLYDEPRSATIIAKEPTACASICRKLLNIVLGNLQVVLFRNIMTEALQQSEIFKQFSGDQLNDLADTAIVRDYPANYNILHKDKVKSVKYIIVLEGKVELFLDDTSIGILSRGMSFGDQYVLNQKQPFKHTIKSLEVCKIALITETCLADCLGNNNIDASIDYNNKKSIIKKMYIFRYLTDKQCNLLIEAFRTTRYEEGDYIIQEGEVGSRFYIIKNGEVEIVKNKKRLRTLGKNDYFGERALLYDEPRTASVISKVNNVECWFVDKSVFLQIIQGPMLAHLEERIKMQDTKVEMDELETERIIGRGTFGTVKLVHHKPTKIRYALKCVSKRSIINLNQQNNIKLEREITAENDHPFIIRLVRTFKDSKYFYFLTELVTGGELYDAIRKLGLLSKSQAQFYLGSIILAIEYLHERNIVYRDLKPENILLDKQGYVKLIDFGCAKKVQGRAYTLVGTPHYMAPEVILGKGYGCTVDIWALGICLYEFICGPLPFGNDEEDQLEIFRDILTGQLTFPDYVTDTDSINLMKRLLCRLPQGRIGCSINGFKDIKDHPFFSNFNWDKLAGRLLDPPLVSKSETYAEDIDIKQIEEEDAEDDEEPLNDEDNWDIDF
Run description: ADP-Glo kinase assay, PfPKG
Type: biochemical
Experimental context: 10 µM ATP; read-out: IC50 PfPKG
Protocol: Full-length PfPKG (PF3D7_1436600)^[19] and PvPI4Kβ (PVX_098050)^[20] recombinant proteins were expressed in E. coli and baculovirus-insect cell expression systems. The kinase domain of PfCLK3 (PF3D7_1114700, Gln317 to Ser694) was expressed in E. coli Rosetta™(DE3)pLysS cells (kind gift from Rafael M. Couñago, CQMED, University of Campinas). […] Mean IC50 values were calculated from two independent experiments, each with technical duplicates.
Property name: IC50

Input line: Identify the measured IC50 of O=C(Nc1cccc(Nc2nccc(Nc3cccc(C(F)(F)F)c3)n2)c1)C1CC1 for recombinant PfPKG (Plasmodium falciparum, UniProt Q8I719).
Output line: 2.7 µM

----------
Target: recombinant PfPKG (Plasmodium falciparum, UniProt Q8I719)
Construct: Full-length PfPKG (PF3D7_1436600); His tag (N); made in house; host or cells: E. coli (first-named host, read as 'respectively')
Run description: ADP-Glo kinase assay, PfPKG
Format: biochemical
Property name: pIC50
Numbers only, as −log10 of the molar value.

Illustrative cases are given below, each with its answer.
O=C(Nc1c[nH]nc1-c1nc2ccc(CN3CCOCC3)cc2[nH]1)NC1CC1
5.03
COc1cc(N2CCC(N3CCN(C)CC3)CC2)ccc1Nc1ncc(Cl)c(Nc2ccccc2S(=O)(=O)C(C)C)n1
5.70

Now for a further molecule.
Input line: Requested read-out pIC50, target or system recombinant PfPKG (Plasmodium falciparum, UniProt Q8I719), entry CCN1CCN(C(=O)Cc2ccc(Nc3ncc(F)c(Nc4ccc(C(=O)Nc5ccccc5Cl)cc4)n3)cc2)CC1
Output line: 5.77

----------
Run description: Protein binding in Albumax II media
Type: in vitro ADME
Experimental context: bovine
Property name: fraction unbound
One number for each entry.

Input line: Quick check: fraction unbound of COc1cc(N2CCC(N3CCN(C)CC3)CC2)ccc1Nc1ncc(Cl)c(Nc2ccccc2S(=O)(=O)C(C)C)n1 [TAE684, NVP-TAE684] ?
Output line: 0.2

----------
System: P. falciparum drug-sensitive NF54 (PfNF54) asexual intra-erythrocytic parasites
Run description: SYBR Green I proliferation assay, PfNF54 asexual blood stages
Assay type: cell-based, Plasmodium falciparum
Experimental context: Plasmodium falciparum, NF54, 96 h, read-out: Pf NF54 ABS IC50
Property name: pIC50
Give bare numbers, as −log10 of the molar value.

CCN1CCN(C(=O)Cc2ccc(Nc3ncc(F)c(Nc4ccc(C(=O)Nc5ccccc5Cl)cc4)n3)cc2)CC1
6.32

Below: the item to evaluate.
Input line: Give P. falciparum drug-sensitive NF54 (PfNF54) asexual intra-erythrocytic parasites pIC50 for CCN(CCO)CCCOc1ccc2c(Nc3cc(CC(=O)Nc4cccc(F)c4)n[nH]3)ncnc2c1
Output line: 6.12

----------
Test system: hepatocellular carcinoma (HepG2) cells
Run description: Cytotoxicity counter-screening (MTT), HepG2
Experimental context: read-out: HepG2 CC50; 48 h, MTT
So I've got a bunch of molecules here, and I need their CC50 values.

CCN(CCO)CCCOc1ccc2c(Nc3cc(CC(=O)Nc4cccc(F)c4)n[nH]3)ncnc2c1
25.9 µM

Input line: Can you look up the measured CC50 of COc1cc2c(Nc3ccc(NC(=O)c4ccccc4)cc3)ncnc2cc1OCCCN1CCOCC1 for me?
Output line: 26.5 µM

----------
Run description: Cytotoxicity counter-screening (MTT), CHO
Experimental context: Chinese hamster, CHO cells
Property name: CC50 at 48 h (µM)
Numbers only, in µM.

# count of solved cases: 2
CO[C@@H](C(=O)N1Cc2n[nH]c(NC(=O)c3ccc(N4CCN(C)CC4)cc3)c2C1)c1ccccc1
33.2
CCn1cc(-c2ccnc3[nH]c(-c4cccc(CN(C)C)c4)cc23)c(-c2ccc(NC(=O)N(C)C)cc2)n1
5.3

Now consider the entry below.
Input line: Form field: reported CC50 at 48 h of O=C(Nc1cccc(Nc2nccc(Nc3cccc(C(F)(F)F)c3)n2)c1)C1CC1
Output line: 2.4

----------
Tested on: P. falciparum drug-sensitive NF54 (PfNF54) asexual intra-erythrocytic parasites
Run description: SYBR Green I proliferation assay, PfNF54 asexual blood stages
Assay type: cell-based, Plasmodium falciparum
Experimental context: Plasmodium falciparum, NF54, read-out: Pf NF54 ABS IC50
What IC50 was measured for each of the following?

CCN1CCN(C(=O)Cc2ccc(Nc3ncc(F)c(Nc4ccc(C(=O)Nc5ccccc5Cl)cc4)n3)cc2)CC1
< 1000 nM

Input line: Find the recorded IC50 belonging to CCN(CCO)CCCOc1ccc2c(Nc3cc(CC(=O)Nc4cccc(F)c4)n[nH]3)ncnc2c1 and report it.
Output line: < 1000 nM
